Value source: paper PMC6199744

Target: HeLa cell extract proteins (Homo sapiens, UniProt P30153)
Construct: endogenous in cells; host or cells: HeLa cell extract
Sequence (P30153 whole entry): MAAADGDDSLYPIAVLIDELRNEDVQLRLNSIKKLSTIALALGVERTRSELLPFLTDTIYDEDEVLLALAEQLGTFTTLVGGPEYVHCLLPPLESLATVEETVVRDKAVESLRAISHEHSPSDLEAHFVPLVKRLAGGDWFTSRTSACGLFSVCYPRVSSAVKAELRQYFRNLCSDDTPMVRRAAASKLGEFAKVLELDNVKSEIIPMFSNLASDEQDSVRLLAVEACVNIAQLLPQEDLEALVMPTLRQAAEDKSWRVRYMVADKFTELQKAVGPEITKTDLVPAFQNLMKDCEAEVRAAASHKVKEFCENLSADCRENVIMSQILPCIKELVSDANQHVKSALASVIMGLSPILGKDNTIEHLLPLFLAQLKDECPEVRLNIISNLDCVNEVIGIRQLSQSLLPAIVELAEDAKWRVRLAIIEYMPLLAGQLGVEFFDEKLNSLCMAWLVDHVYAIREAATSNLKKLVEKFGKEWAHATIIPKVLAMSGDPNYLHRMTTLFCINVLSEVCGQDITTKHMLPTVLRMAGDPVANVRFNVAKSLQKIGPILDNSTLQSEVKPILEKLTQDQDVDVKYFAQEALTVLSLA
Format: binding
Conditions: HeLa; protein PPP2R1A
# maps each entry to its fold changes relative to vehicle control
readout.type: fold changes relative to vehicle control

molecule | assay.target | numeric.readout
Nc1nc2c(c(=O)[nH]1)N(C=O)C(CNc1ccc(C(=O)N[C@@H](CCC(=O)O)C(=O)O)cc1)CN2 (stereo partly drawn) | HeLa cell extract proteins (Homo sapiens, UniProt P30153) | 0.97
NCCOCCOCC(=O)Nc1nc2ncc(CNc3ccc(C(=O)NC(CCC(=O)O)C(=O)O)cc3)nc2c(=O)[nH]1 (stereo not drawn) | HeLa cell extract proteins (Homo sapiens, UniProt P30153) | 0.86
Nc1nc2cccc(-c3ccccc3)c2n1Cc1ccc(Cl)c(Cl)c1 | HeLa cell extract proteins (Homo sapiens, UniProt P30153) | 0.88
NCCCNc1ccc(C(=O)NC(CCC(=O)O)C(=O)O)cc1 (stereo not drawn) | HeLa cell extract proteins (Homo sapiens, UniProt P30153) | 0.95
CCCCCCOc1cccc(Cc2cnc(N)nc2N)c1 | HeLa cell extract proteins (Homo sapiens, UniProt P30153) | 0.95
CCCCCCOc1ccc(Cc2cnc(N)nc2N)cc1 | HeLa cell extract proteins (Homo sapiens, UniProt P30153) | 0.95
